System: Saccharomyces cerevisiae
Assay: fraction of cells in G1 phase (DNA content, flow cytometry); higher = more cells with unreplicated DNA (G1 delay)
Conditions: temperature: 30 C; YPD; JTY2953 pdr5 snq2 (sensitized); drug added to: cultures diluted from stationary phase; 6-7 h
Structures can show the parent of a compound that is named as a salt.
assay metric: fraction of cells in G1 phase

Would you please look over these solved cases?
{"columns": ["molecule", "reported result"],
 "data": [
  ["CN(C)c1nc(N(C)C)nc(N(C)C)n1 [Altretamine] (95.1095 µM)", 0.49],
  ["CCOc1ccccc1OCCN[C@H](C)Cc1ccc(OC)c(S(N)(=O)=O)c1 [Tamsulosin HCl] (48.9571 µM)", 0.507],
  ["CC[C@H](c1ccc(O)cc1)[C@@H](CC)c1ccc(O)cc1 [Hexestrol] (73.9714 µM)", 0.895],
  ["NC(CO)C(=O)NNCc1ccc(O)c(O)c1O (centres undefined) [Benserazide HCl] (77.7459 µM)", 0.514],
  ["CC[C@@H]1C(=O)OC[C@@H]1Cc1cncn1C [Pilocarpine HCl] (96.0327 µM)", 0.526]
]}

Could you share which fraction of cells in G1 phase value was measured for CC1=C(/C=C/C(C)=C/C=C/C(C)=C/C(=O)O)C(C)(C)CCC1 [Retinoic acid] (66.5679 µM) ?
0.524

Then CC(C)(C)C(=O)C(Oc1ccc(Cl)cc1)n1ccnc1 (centres undefined) [Climbazole] (68.3135 µM) ?
0.719

Then Cn1c(NCCN(CCO)CCCc2ccc([N+](=O)[O-])cc2)cc(=O)n(C)c1=O [Nifekalant HCl] (49.327 µM) ?
0.479

Then CCOc1nc2cccc(C(=O)O)c2n1Cc1ccc(-c2ccccc2-c2nnn[nH]2)cc1 [Candesartan] (45.4065 µM) ?
0.506

Then CC(C[N+](C)(C)C)OC(N)=O (stereo not drawn) [Carbamyl-beta-methylcholine Cl] (124.05 µM) ?
0.5

Then Cc1c(-c2cnccn2)ssc1=S [Oltipraz] (88.3617 µM) ?
0.503

Then O=C(CCCN1CCC(O)(c2cccc(C(F)(F)F)c2)CC1)c1ccc(F)cc1 [Trifluperidol 2HCl] (48.8487 µM) ?
0.563

Then CS(=O)(=O)c1ccc([C@H](O)[C@@H](COC(=O)CN)NC(=O)C(Cl)Cl)cc1 [Thiamphenicol glycinate] (48.3934 µM) ?
0.478

Then Cn1cnc([N+](=O)[O-])c1Sc1ncnc2[nH]cnc12 [Azathioprine] (72.1241 µM) ?
0.465

Then CC(=O)SCC(Cc1ccccc1)C(=O)NCC(=O)OCc1ccccc1 (centres undefined) [Racecadotril] (51.8826 µM) ?
0.509

Then CC(=O)OCC(=O)[C@@]1(O)CC[C@H]2[C@@H]3CCC4=CC(=O)CC[C@]4(C)[C@H]3[C@@H](O)C[C@@]21C [Hydrocortisone 21-acetate] (49.4428 µM) ?
0.494

Then CN(C)CCCOc1nn(Cc2ccccc2)c2ccccc12 [Benzydamine] (64.6382 µM) ?
0.48

Then O=NN(CCCl)C(=O)NC1CCCCC1 [Lomustine] (85.5799 µM) ?
0.451

Then CC(C)NNC(=O)c1ccncc1 [Iproniazid] (111.593 µM) ?
0.47

Then CC(=O)O[C@H]1C(=O)[C@@]2(C)[C@H]([C@H](OC(=O)c3ccccc3)[C@]3(O)C[C@H](OC(=O)[C@H](O)[C@@H](NC(=O)c4ccccc4)c4ccccc4)C(C)=C1C3(C)C)[C@]1(OC(C)=O)CO[C@@H]1C[C@@H]2O [Taxol] (23.4212 µM) ?
0.481

Then CS(=O)(=O)c1ccc(C2=C(c3ccccc3)C(=O)OC2)cc1 [Rofecoxib] (63.6208 µM) ?
0.536

Then CN(CCOc1ccc(CC2SC(=O)NC2=O)cc1)c1ccccn1 (centres undefined) [Rosiglitazone maleate] (42.2386 µM) ?
0.574

Then CC(N)C12CC3CC(CC(C3)C1)C2 (centres undefined) [Rimantadine HCl] (111.54 µM) ?
0.484
